Listing of recorded IC50 by entry.
tested on: A-431; assay: Cytotoxicity against human A431 cells after 4 days by coulter counting; format: functional, cell-based; conditions: A-431, 96 h
Note to self: number, then unit, no commentary.

Before answering, review these 3 worked examples.
compound | target system | IC50
C/C1=C\C[C@@H](C2=CC[C@H](C(C)(C)O)OC2)CC/C(C)=C/CC1 [CYCLOLOBATRIENE] | A-431 | 640 nM
C=C[C@@]1(C)CC[C@H](/C(C)=C/C=C/C(C)(C)O)C[C@@H]1C(=C)C [FUSCOL] | A-431 | 520 nM
C/C1=C\C[C@@H](/C(C)=C/C=C/C(C)(C)O)CC/C(C)=C/CC1 [EUNICOL] | A-431 | 350 nM

compound C=C[C@@]1(C)CC[C@H](C2=CC[C@H](C(C)(C)O)OC2)C[C@@H]1C(=C)C [LOBATRIENE] , IC50 observed: 410 nM
